Tgt: His-tagged human recombinant MTH1 protein (Homo sapiens)
Construct: His; purchased ProSpec
Method Description: MTH1 enzyme assay (PPiLight pyrophosphate detection)
Assay type: biochemical
Condition Notes: substrate 2-OH-dATP; Dixon plot; read-out: Ki for 2-OH-dATP
// reported Ki per item

{"columns": ["Molecule", "Ki"],
 "data": [
  ["CC1(C)CC2CC(C)(CN2c2ncnc3[nH]cnc23)C1 (centres unmarked)", "180 nM"]
]}

Shift focus to the following entry.
Asked: Endpoint output: Ki of Nc1nc(NCCc2ccccc2)c2nc[nH]c2n1 . Value?
Given back: 220 nM

###

Tgt: His-tagged human recombinant MTH1 protein (Homo sapiens, UniProt P36639)
Construct: His; purchased ProSpec
Method Description: MTH1 enzyme assay (PPiLight pyrophosphate detection)
Assay type: biochemical
Condition Notes: substrate 2-OH-dATP (8.3 μM); MTH1 2 nM; read-out: IC50 of MTH1 inhibitory activity, 2-OH-dATP
// reported pIC50 per item
The scale used: pIC50 is minus the common logarithm of the concentration in molar units.

Worked examples follow.
{"columns": ["Compound", "pIC50"],
 "data": [
  ["CC(C)OCCCNc1ncnc2[nH]cnc12", 5.17],
  ["CNc1cc(-c2cccc(Cl)c2Cl)nc(N)n1 [TH287, reference compound]", 8.44],
  ["COc1ccc2nc3c(c(C)nn3C)c(NCCOCCO)c2c1 [SCH51344, reference compound]", 6.12]
]}

Asked: Endpoint output: pIC50 of CC1(C)CC2CC(C)(CN2c2ncnc3[nH]cnc23)C1 (stereo not drawn) . Value?
Given back: 6.42

Asked: Endpoint output: pIC50 of Nc1nc(NCCc2ccccc2)c2nc[nH]c2n1 . Value?
Given back: 6.30

###

System: HeLa cells
Method Description: Cell death assay (WST-8) in HeLa cells
Type: cell-based, human
Condition Notes: 72 h, WST-8; read-out: cytotoxicity IC50 against HeLa cells
Readout Label: IC50 (µM)
Please reply with the bare figure in µM and do not write the unit itself.

Asked: Item C[C@H](Oc1cc(-c2cnn(C3CCNCC3)c2)cnc1N)c1c(Cl)ccc(F)c1Cl [(S)-crizotinib, reference compound] with HeLa cells - IC50?
Given back: 13

###

// reported Ki per item
Tgt: His-tagged human recombinant MTH1 protein (Homo sapiens, UniProt P36639)
Construct: His; purchased ProSpec
Method Description: MTH1 enzyme assay (PPiLight pyrophosphate detection)
Type: biochemical
Condition Notes: substrate 8-oxo-dGTP; Dixon plot; read-out: Ki for 8-oxo-dGTP
Protocol: An MTH1 enzyme assay was performed as described previously with minor modifications. […] Relative MTH1 activity was measured by monitoring the pyrophosphate (PPi) generated through MTH1-catalyzed nucleotide triphosphate hydrolysis. The luciferase-mediated luminescence signal was recorded for 30 min using a luminometer (Molecular Devices).
Please reply with the bare figure in nM and do not write the unit itself.

{"columns": ["Molecule", "Endpoint Result"],
 "data": [
  ["CC1(C)CC2CC(C)(CN2c2ncnc3[nH]cnc23)C1 (centres unmarked)", 100]
]}

Shift focus to the following entry.
Asked: Endpoint output: Ki of Nc1nc(NCCc2ccccc2)c2nc[nH]c2n1 . Value?
Given back: 130

###

Tgt: His-tagged human recombinant MTH1 protein (Homo sapiens, UniProt P36639)
Construct: His; purchased ProSpec
Method Description: MTH1 enzyme assay (PPiLight pyrophosphate detection)
Format: biochemical
Condition Notes: substrate 8-oxo-dGTP (13.2 μM); MTH1 2 nM; read-out: IC50 of MTH1 inhibitory activity, 8-oxo-dGTP
// reported IC50 per item
Please reply with the bare figure in µM and do not write the unit itself.

Worked examples follow.
{"columns": ["Molecule", "Tgt", "IC50 [µM]"],
 "data": [
  ["CNc1cc(-c2cccc(Cl)c2Cl)nc(N)n1 [TH287, reference compound]", "His-tagged human recombinant MTH1 protein (Homo sapiens, UniProt P36639)", 0.0022],
  ["Nc1nc(NCCc2ccccc2)c2nc[nH]c2n1", "His-tagged human recombinant MTH1 protein (Homo sapiens, UniProt P36639)", 0.29],
  ["COc1ccc2nc3c(c(C)nn3C)c(NCCOCCO)c2c1 [SCH51344, reference compound]", "His-tagged human recombinant MTH1 protein (Homo sapiens, UniProt P36639)", 0.32]
]}

Shift focus to the following entry.
Asked: Endpoint output: IC50 of CC(C)OCCCNc1ncnc2[nH]cnc12 . Value?
Given back: 3.3

###

System: HeLa cells
Method Description: Cell death assay (WST-8) in HeLa cells
Assay type: cell-based, human
Readout Label: pIC50
The scale used: pIC50 is minus the common logarithm of the concentration in molar units.

Asked: Endpoint output: pIC50 of COc1ccc2nc3c(c(C)nn3C)c(NCCOCCO)c2c1 [SCH51344, reference compound] . Value?
Given back: 5.26

Value source: paper PMC4876372
